Items are presented alongside their recorded Activity.
- ASSAY_TARGET: Integrin alpha-V/beta-3 (Homo sapiens, UniProt P05106+P06756)
- PROCEDURE_TEXT: Activity at alphaVbeta3 integrin receptor in human SK-MEL-24 cells assessed as effect on fibronectin-induced cell adhesion pre-incubated for 30 mins
- Type: cell-based

Solved entries:
>>> experimental_value("Cc1ccccc1NC(=O)N1C(=O)C[C@@H]1C(=O)O")
"> 5 µM"
>>> experimental_value("NCc1ccc(NC(=O)N2C(=O)C[C@@H]2C(=O)O)cc1")
"> 5 µM"

Query (compound): NCc1ccc(NC(=O)N2C(=O)C[C@H]2C(=O)O)cc1 ; field requested: Activity
> 5 µM

Let us now turn to Cc1ccccc1NC(=O)N1C(=O)CC1CC(=O)NCC(=O)O (stereo not given)
> 5 µM

Let us now turn to O=C(O)CNC(=O)CC1CC(=O)N1 (stereo not given)
> 5 µM

Let us now turn to Cc1ccccc1NC(=O)N1CCC1=O
> 5 µM

Let us now turn to Cc1ccccc1C(=O)N1C(=O)C[C@H]1C(=O)O
> 5 µM

Let us now turn to Cc1ccccc1NC(=O)N1C(=O)C[C@@H]1C(=O)NCCC(=O)O
> 5 µM

Let us now turn to Cc1ccccc1C(=O)N1C(=O)CC1CC(=O)O (stereo not given)
> 5 µM

Let us now turn to Cc1ccccc1NC(=O)N1C(=O)CC1CC(=O)O (stereo not given)
> 5 µM

Ref: ChEMBL document CHEMBL4321835
